long term survivors/no. tested for assorted compounds
Test system: Murine Leukemia L1210/DACH
Assay: In vivo antitumor activity against murine leukemia L1210/DACH (Example 3, Table 6)
Set-up: species or system BDF1 mice
Details: L1210/DACH i.p., BDF1 mice; drug i.p. days 1, 5, 9; figures in parenthesis
endpoint-label: long term survivors/no. tested

compound	endpoint-label	value-measured
NC1CCC(N)CC1.O=C1[O][Pt][O]C(=O)C1O	long term survivors/no. tested	4/5
CC(C(=O)[O-])C(=O)[O-].N[C@H]1CC[C@@H](N)CC1.O.[Pt+2]	long term survivors/no. tested	1/5
NC1CCC(N)CC1.O.O=C([O-])C1(C(=O)[O-])CCC1.[Pt+2]	long term survivors/no. tested	1/5
NC1CCC(N)CC1.O.O=S(=O)([O-])[O][Pt+] (stereo not shown)	long term survivors/no. tested	1/5

---

Assay: Renal and hematological toxicity, single i.p. dose (Table 8)
Settings: single i.p. dose (mg/kg): 1,4-DACH-Pt^II CBDCA 300, 1,4-DACH-Pt^IV Cl4 8.0, Tetraplatin 8.0, Cis-platin 12.0, Carboplatin 150; mean, S.D. less than 20%
Body Wt. on d.5 for assorted compounds
endpoint-label: Body Wt. on d.5 (% on control)

compound	value-measured
N.N.O=C([O-])C1(C(=O)[O-])CCC1.[Pt+2]	79
NC1CCC(N)CC1.[Cl][Pt]([Cl])([Cl])[Cl] (stereo not shown)	89
NC1CCC(N)CC1.O.O=C([O-])C1(C(=O)[O-])CCC1.[Pt+2]	99
N[C@@H]1CCCC[C@H]1N.[Cl][Pt+2]([Cl])([Cl])[Cl] [Tetraplatin, reference compound]	94

---

Test system: Murine Leukemia 1210/DDP
Test: In vivo antitumor activity against murine leukemia L1210/DDP (Example 3, Table 7)
Set-up: species or system BDF1 mice
Conditions: L1210/DDP i.p., BDF1 mice; drug i.p. days 1, 5, 9; at optimal dose/MTD
% T/C (mean survival time of treated/mean survival time of control) × 100 for assorted compounds
endpoint-label: % T/C (mean survival time of treated/mean survival time of control) × 100 (%)

compound	value-measured
NC1CCC(N)CC1.O=C1[O][Pt][O]C(=O)C1O	187
N[C@@H]1CCCC[C@H]1N.[Cl][Pt+2]([Cl])([Cl])[Cl] [Tetraplatin, reference compound]	143
NC1CCC(N)CC1.[Cl][Pt]([Cl])([Cl])[Cl] (stereo not shown)	170
N.N.[Cl][Pt][Cl] [Cis-platin, cis-diaminedichloroplatinum(II), reference compound]	100
